# System: SN12C renal
# experiment-summary: NCI tumour cell line growth inhibition, 48 h
quantity-measured: TGI

- N=Nc1c(OC(=O)Nc2cccc(Cl)c2)[nH]c2ccccc12: 14.8 µM
- CC(=O)OC1COC(n2ccc3cc(Br)c([N+](=O)[O-])cc32)C(OC(C)=O)C1OC(C)=O (stereo not given): > 100 µM
- CCc1cc(Cc2cc(CC)c(NC(=O)C(=O)Cc3ccccn3)c(CC)c2Cl)c(Cl)c(CC)c1NC(=O)C(=O)Cc1ccccn1: > 100 µM
- CCN(CC)c1ccc(-c2cc(-c3cc(OC)c(OC)c(OC)c3)nc(N3CCOCC3)c2C#N)cc1: > 100 µM
- C/C(=N\NC(=S)NC(CCC(=O)O)C(=O)O)c1ccccn1 (stereo not given): > 100 µM
